Where do the numbers come from? From the supplement of paper PMC6555819.

- Tested on: PPARg DBDmut IVT, anti-PPARg (DBD mutation: PPARg1 K132A/R137A, NR concentration 270 nM)
- Protocol summary: PBM binding z-score (relative to random genomic background probes); higher = stronger binding; sequences stand for … in GC…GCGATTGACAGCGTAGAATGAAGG
Label rule, in plain words: PBM binding z-score of 0.6 and up is Fulfilled, under 0.6 is Not fulfilled.

- Chain sequence: "GGAACGAGGGCATTCGAGTTGATTGCATGGCGAT"
  Group label: "Not fulfilled"
- Chain sequence: "AGAATGAGCTTAAGATCAGGGAAACAGAATACAT"
  Group label: "Not fulfilled"
- Chain sequence: "GATATTAGTTGAAAGGGCAACCGAATGATTCTCG"
  Group label: "Fulfilled"
- Chain sequence: "ATCTCTAGGTAACCAAATTCAGTGAATGCCGAAC"
  Group label: "Fulfilled"
- Chain sequence: "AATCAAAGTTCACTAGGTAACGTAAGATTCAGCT"
  Group label: "Fulfilled"
- Chain sequence: "CCTAGTTGCTCAGGAGGTCACACACCGGATATGA"
  Group label: "Fulfilled"
- Chain sequence: "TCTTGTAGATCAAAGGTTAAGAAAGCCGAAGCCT"
  Group label: "Fulfilled"
- Chain sequence: "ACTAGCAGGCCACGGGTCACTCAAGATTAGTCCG"
  Group label: "Not fulfilled"
- Chain sequence: "GTTATTAGTTGAAAGGGCAACCGAATGATTCTCG"
  Group label: "Fulfilled"
- Chain sequence: "GCTATTAGTTGAAAGGTCAACCGAATGATTCTCG"
  Group label: "Fulfilled"
- Chain sequence: "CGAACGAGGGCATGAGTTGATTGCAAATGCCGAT"
  Group label: "Not fulfilled"
- Chain sequence: "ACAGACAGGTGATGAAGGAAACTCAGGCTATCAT"
  Group label: "Not fulfilled"
- Chain sequence: "CCTTACGGGTCACTGACAGGTTAAAGCATTTGGA"
  Group label: "Not fulfilled"

====

- Test system: PXR:RXRa (NR concentration 270 nM, RXRa partner concentration 90 nM)
- Protocol summary: PBM binding z-score (relative to random genomic background probes); higher = stronger binding; sequences stand for … in GC…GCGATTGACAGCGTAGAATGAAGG
Form field: PBM binding z-score (one value per entry).

- Chain sequence: "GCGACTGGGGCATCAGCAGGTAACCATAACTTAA"
  PBM binding z-score: -0.194
- Chain sequence: "CTACCAAGGTGAACAAGGTAGTTGATTACTATTC"
  PBM binding z-score: 0.0464
- Chain sequence: "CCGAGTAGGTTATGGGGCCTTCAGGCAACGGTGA"
  PBM binding z-score: -0.268
- Chain sequence: "ACTTACTGGTCAACGAGGTTATAGCACGCGTATA"
  PBM binding z-score: 1.89
- Chain sequence: "ACAGACAGGTGATTGAAGGTAACTCAGCTGGACG"
  PBM binding z-score: -0.285
- Chain sequence: "AATACAGGGGCACTAGGCCAGAGTAGGTACGAAT"
  PBM binding z-score: -0.286
- Chain sequence: "CCTAGCAGGCCAATCTGGGTCACTCGAGGCTTGA"
  PBM binding z-score: 1.1
- Chain sequence: "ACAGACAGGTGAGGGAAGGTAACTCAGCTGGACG"
  PBM binding z-score: -0.00447
- Chain sequence: "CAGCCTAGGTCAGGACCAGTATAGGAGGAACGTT"
  PBM binding z-score: 0.277
- Chain sequence: "ATCTCTAGGTAACAAGTTCATTGAAAGAGAGGAC"
  PBM binding z-score: 3.71
- Chain sequence: "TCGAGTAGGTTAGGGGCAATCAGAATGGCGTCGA"
  PBM binding z-score: 0.437
- Chain sequence: "TCTTGTAGATCAAGCAGGTTAAGTAAGCCTGAGT"
  PBM binding z-score: 0.295
- Chain sequence: "AGAACGATGGCAATGAGTTGATAGCACGGGTGGC"
  PBM binding z-score: -0.563
- Chain sequence: "GCGGCTAGGTCAGGTTGGTCAGCTAACGGGTACG"
  PBM binding z-score: 0.325
- Chain sequence: "ATCTCTAGGTAACGTTCAGTGAAAGATCGATAGA"
  PBM binding z-score: 0.0439
- Chain sequence: "ATATGTATGTTAGCTGGGGTCATTCAGACTAGGC"
  PBM binding z-score: 5.63
- Chain sequence: "GCAGACAGGAGAAACGCAGGTAACTCAGGGTGGC"
  PBM binding z-score: -0.694
- Chain sequence: "TAGCCTAGGTCTGATCGGGCCAGTATACGCTATA"
  PBM binding z-score: -0.673
- Chain sequence: "GCATATAGGTAATAAAAGGTGAAAGTCCGATTGT"
  PBM binding z-score: 0.771
- Chain sequence: "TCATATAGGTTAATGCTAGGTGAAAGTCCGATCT"
  PBM binding z-score: 1.13
- Chain sequence: "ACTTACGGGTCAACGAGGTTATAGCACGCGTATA"
  PBM binding z-score: 5.1
- Chain sequence: "CGTCAATGTTCAACTAAGGTAACGTAAAGCACGC"
  PBM binding z-score: 0.252
- Chain sequence: "TGTCAAAGTGCAAAGGTAACGTAAGTATCCACAC"
  PBM binding z-score: 1.76
- Chain sequence: "TCTTGTAGATCAACAGGTTAAGAAAGCTGGCCAA"
  PBM binding z-score: 0.51
- Chain sequence: "CGTCAAAGTTCAACTAAGGTAAAGTAAAGCACGC"
  PBM binding z-score: 5.32
- Chain sequence: "CCTGACGGGTCACTGACAGGTTATAGCATTTGGA"
  PBM binding z-score: 3.08
- Chain sequence: "CGTCAAAGTTCAACTAAGGTAACGTACAGCACGC"
  PBM binding z-score: 5.9
- Chain sequence: "CATACAGGGTCAGCTAGGCAAGAGTAGGGACGGC"
  PBM binding z-score: 1.97
- Chain sequence: "CGCCAAAGTTCAACTAAGGTAACGTAAAGCACGC"
  PBM binding z-score: 5.66
- Chain sequence: "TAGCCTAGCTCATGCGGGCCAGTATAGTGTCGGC"
  PBM binding z-score: -1.02
- Chain sequence: "CGAACGAAGGCATGAGTTGATAGCAAATGCCGAT"
  PBM binding z-score: -0.575
- Chain sequence: "CGTCCAAGGTCATAGGATGTCAGTGAAGACAGAT"
  PBM binding z-score: 4.69
- Chain sequence: "CCGACTAGGGCAAGGTTACCATAACGCACAGCCA"
  PBM binding z-score: 0.169
- Chain sequence: "TCAGACAGGTGAACGTAACTCAGGTACGCAGTCG"
  PBM binding z-score: 0.573
- Chain sequence: "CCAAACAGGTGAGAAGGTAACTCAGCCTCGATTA"
  PBM binding z-score: -0.406
- Chain sequence: "GCTGCTAGGTCAACTGACGGTCAGCTAAAGCTCG"
  PBM binding z-score: 2.08
- Chain sequence: "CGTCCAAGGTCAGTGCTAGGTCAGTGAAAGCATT"
  PBM binding z-score: 3.4
- Chain sequence: "CGAACTAGGTCACGGACAGTGAATCTCCGCACGC"
  PBM binding z-score: 2.4
- Chain sequence: "TCATATACGTAAACAGGTGAAAGTCCGTAAGTTA"
  PBM binding z-score: 1.19
- Chain sequence: "ATGTGTAGGTTAAGGGTCATTCAGGTTGGTTCGC"
  PBM binding z-score: 5.44
- Chain sequence: "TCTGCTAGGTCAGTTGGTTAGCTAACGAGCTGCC"
  PBM binding z-score: 0.251
- Chain sequence: "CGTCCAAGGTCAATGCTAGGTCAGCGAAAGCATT"
  PBM binding z-score: 4.98
- Chain sequence: "GCAGACAGGTGAAACGCAGGTACCTCAGGGTGGC"
  PBM binding z-score: -0.784
- Chain sequence: "CCTAATTGGTCAAGGTCACACACGCTATAGGTAC"
  PBM binding z-score: 4.32
